experiment: Metabolic stability in mouse microsome
condition summary: mouse microsome 1 mg/mL, 5 μM compound, 1 mM NADPH
Outcome: 1 (yes) for Metabolic stability (CLh. int), Mouse of at least 5000 µL/min/mg; 0 (no) for anything lower.

- structure smiles: "CNC1CN(c2nc3ncc(C#N)cc3n3cnnc23)C1"
  assigned class: "0 (no)"
- structure smiles: "CN1CCN(c2nc3nc(Cl)c(Cl)cc3n3cnnc23)CC1"
  assigned class: "1 (yes)"
- structure smiles: "CNC1CN(c2nc3ncc(Br)cc3n3cnnc23)C1.Cl"
  assigned class: "0 (no)"
- structure smiles: "Clc1cnc2nc(N3C[C@@H]4C[C@H]3CN4)c3nncn3c2c1"
  assigned class: "0 (no)"
- structure smiles: "CNC1CN(c2nc3ncc(C(F)(F)F)cc3n3cnnc23)C1"
  assigned class: "0 (no)"
